Test system: metallo-beta-lactamase IMP-1 (Pseudomonas aeruginosa)
experiment notes: IMP-1 metallo-beta-lactamase inhibitors, primary screen, biochemical, epi-absorbance readout, Pseudomonas aeruginosa enzyme (AID 1556);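 note: 0% = IMP-1 with DMSO and 100% = DMSO wells lacking enzyme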
condition context: purified IMP-1, nitrocefin hydrolysis, epi-absorbance fluorescence; at 5.6 µM; active compounds read high
Screen size: about 290,000 compounds; about 1,300 (0.45%) were called active. Only a selection was taken, and actives are over-represented in it overall.
parameter: inhibition (%)
All answers are understood in %, so give the number only.

Query: Name the reported inhibition value associated with the compound O=C1CC(Cc2ccccc2)C(=O)N1c1ccc(Cl)cn1 (stereo not given)
Response: -3.13

Query: Name the reported inhibition value associated with the compound COc1cc(OC)cc(-c2cc3nc(C4CCN(C(=O)OC(C)(C)C)CC4)cc(=O)n3[nH]2)c1
Response: -4.79

Query: Name the reported inhibition value associated with the compound COc1ccc(NC(=O)CCN2C(=O)/C(=C/c3ccc4c(c3)OCO4)SC2=S)cc1
Response: -3.16

Query: Name the reported inhibition value associated with the compound Cn1cccc1/C=C1\SC(=O)N(CC(=O)Nc2ccc(F)cc2)C1=O
Response: -1.78

Query: Name the reported inhibition value associated with the compound C/C(=N\NS(=O)(=O)c1ccc(Br)cc1)c1cccs1
Response: -3.54

Query: Name the reported inhibition value associated with the compound Cc1ccc(C(=O)O)cc1-c1ccc(/C=C2\SC(=O)N(CC(=O)Nc3ccc4c(c3)OCO4)C2=O)o1
Response: 8.27

Query: Name the reported inhibition value associated with the compound Cc1cc(C)nc(N2C(=O)CC(Cc3ccccc3)C2=O)n1 (stereo not given)
Response: -2.26

Query: Name the reported inhibition value associated with the compound O=C(O)CN1C(=O)CC(Cc2ccccc2)C1=O (stereo not given)
Response: 4.79

Query: Name the reported inhibition value associated with the compound C/C(=N\Nc1ncc(Cl)cc1Cl)c1cccs1
Response: -0.11

Query: Name the reported inhibition value associated with the compound COc1ccc(C2c3[nH]c4ccccc4c3C[C@H]3C(=O)N(CC(C)C)CC(=O)N23)c(OC)c1 (stereo not given in full)
Response: -2.7

###

System: metallo-beta-lactamase IMP-1 (Pseudomonas aeruginosa)
experiment notes: IMP-1 metallo-beta-lactamase inhibitors, primary screen, biochemical, epi-absorbance readout, Pseudomonas aeruginosa enzyme (AID 1556);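 note: 0% = IMP-1 with DMSO and 100% = DMSO wells lacking enzyme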
condition context: purified IMP-1, nitrocefin hydrolysis, epi-absorbance fluorescence; at 5.6 µM
Out of some 290,000 compounds screened, about 1,300 (0.45%) were called active.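 How the source made its calls: active means inhibition above the mean plus 3 SD of all compounds in the same screening run (cut at about 4.5% in these data); inactive means the rest.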 What follows is part of a selection rich in actives, with near analogues and random picks from the rest.
// classify into active, inactive

Query: Dear all, I need the recorded test outcome for COc1cccc(CSc2nc3nc(C)cc(C)n3n2)c1 , thank you.
Response: inactive

Query: Dear all, I need the recorded test outcome for O=C(COC(=O)c1ccc(N2CCCC2=O)cc1)c1ccc(OC(F)F)cc1 , thank you.
Response: inactive

Query: Dear all, I need the recorded test outcome for CC(C)(O)C#Cc1ccc(CN2CCC(CO)(CCc3ccccc3)CC2)cc1 , thank you.
Response: inactive

Query: Dear all, I need the recorded test outcome for COCCOC(=O)C1=C(C)NC(=O)NC1c1ccc(Cl)cc1 (stereo not drawn) , thank you.
Response: inactive

Query: Dear all, I need the recorded test outcome for COc1ccc(Cl)cc1S(=O)(=O)Nc1cccc(C(=O)O)c1 , thank you.
Response: inactive

Query: Dear all, I need the recorded test outcome for O=C(NCc1cccs1)c1ccc(CS(=O)Cc2ccccc2Cl)o1 (stereo not drawn) , thank you.
Response: inactive

Query: Dear all, I need the recorded test outcome for Nc1ccc2nc3c(=O)[nH]c(=S)[nH]c3nc2c1 , thank you.
Response: active

Query: Dear all, I need the recorded test outcome for COc1cc(C(=S)N2CCOCC2)cc(OC)c1OC(=O)c1ccc([N+](=O)[O-])cc1[N+](=O)[O-] , thank you.
Response: inactive

Query: Dear all, I need the recorded test outcome for CCc1ccccc1NC(=O)CCOc1ccccc1 , thank you.
Response: inactive

Query: Dear all, I need the recorded test outcome for COc1ccc(NC(=O)CN2C(=O)COc3ccc(S(=O)(=O)N4CCOCC4)cc32)cc1 , thank you.
Response: inactive

Query: Dear all, I need the recorded test outcome for CCc1ccc(OCC(=O)NCC(c2ccc(Cl)cc2)N2CCCCC2)cc1 (stereo not drawn) , thank you.
Response: inactive

Query: Dear all, I need the recorded test outcome for Cc1cccc(NS(=O)(=O)c2cc(Cl)ccc2Cl)n1 , thank you.
Response: active

Query: Dear all, I need the recorded test outcome for O=C(NCc1cccc(Cl)c1)C1CCN(c2nnc(N3CCCC3=O)s2)CC1 , thank you.
Response: inactive

Query: Dear all, I need the recorded test outcome for COc1ccc(C(O)(C2CCCCC2)C(CN2CCCC2)c2ccccc2)cc1 (stereo not drawn) , thank you.
Response: inactive

Query: Dear all, I need the recorded test outcome for Cc1ccc(C(=O)NCC(=O)OCc2nnc(-c3ccccc3)o2)cc1 , thank you.
Response: inactive

Query: Dear all, I need the recorded test outcome for CCC1=C/C(=C\c2ccc3c(c2)OCO3)C(=O)S1 , thank you.
Response: active

Query: Dear all, I need the recorded test outcome for O=C(c1cc(COc2cccc(C(F)(F)F)c2)on1)N1CCSCC1 , thank you.
Response: inactive

Query: Dear all, I need the recorded test outcome for CC1=C(C(=O)OC2CCCCC2)C(c2ccccc2F)NC(=O)N1 (stereo not drawn) , thank you.
Response: inactive

Query: Dear all, I need the recorded test outcome for CCCCC(=O)Nc1ccccc1N1CCN(c2ccc(F)cc2)CC1 , thank you.
Response: inactive

Query: Dear all, I need the recorded test outcome for COCCOC(=O)c1sc(=S)n(CCOC)c1N , thank you.
Response: inactive

Query: Dear all, I need the recorded test outcome for O=C(N/N=C\c1cccnc1)c1cc(-c2ccccc2)nc2c(Cl)cccc12 , thank you.
Response: inactive

Query: Dear all, I need the recorded test outcome for CC(=O)Nc1ccc(S(=O)(=O)N(C)c2nc3ccccc3nc2Cl)cc1 , thank you.
Response: inactive

Query: Dear all, I need the recorded test outcome for N#CC1=C(N)Oc2c(sc3ccccc23)C1c1ccco1 (stereo not drawn) , thank you.
Response: active
